Sequence of the target: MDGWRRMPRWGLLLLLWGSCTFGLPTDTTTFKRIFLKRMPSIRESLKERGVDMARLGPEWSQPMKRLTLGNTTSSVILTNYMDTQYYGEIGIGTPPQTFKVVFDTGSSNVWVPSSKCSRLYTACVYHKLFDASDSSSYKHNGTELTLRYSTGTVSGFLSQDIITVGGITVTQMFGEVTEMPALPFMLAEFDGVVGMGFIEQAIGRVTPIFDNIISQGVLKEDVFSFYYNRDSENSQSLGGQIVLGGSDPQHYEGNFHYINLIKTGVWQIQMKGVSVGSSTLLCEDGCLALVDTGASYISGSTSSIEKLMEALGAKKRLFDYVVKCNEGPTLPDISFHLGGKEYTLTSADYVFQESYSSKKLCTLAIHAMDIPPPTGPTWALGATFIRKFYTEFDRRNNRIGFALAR
measuredAttribute: IC50

Any idea what its IC50 is? The compound is C[C@@H](NC(=O)c1cc(NS(C)(=O)=O)cc(C(=O)N[C@@H](Cc2ccccc2)C(O)CNC2CC2)c1)c1ccc(F)cc1 (stereo partly specified)
> 50 µM

# repeat for C[C@@H](NC(=O)c1cc(C(=O)N[C@@H](Cc2ccccc2)C(O)CNC2CC2)cc(N(C)S(C)(=O)=O)c1)c1ccccc1 (stereo partly specified)
> 50 µM

# repeat for C[C@@H](NC(=O)c1cc(C(=O)N[C@@H](Cc2ccccc2)[C@H](O)CNC2CC2)cc(N(C)S(=O)(=O)N(C)C)c1)c1ccccc1
> 50 µM

# repeat for C[C@@H](NC(=O)c1cc(C(=O)N[C@@H](Cc2ccccc2)[C@H](O)CNC2CC2)cc(N(C)S(C)(=O)=O)c1)c1ccc(F)cc1
> 10 µM

# repeat for CCNC[C@@H](O)[C@H](Cc1ccccc1)NC(=O)c1cc(C(=O)N[C@H](C)c2ccc(F)cc2)cc(N(C)S(C)(=O)=O)c1
> 50 µM

# repeat for C[C@@H](NC(=O)c1cc(C(=O)N[C@@H](Cc2ccccc2)[C@H](O)CNC(C)(C)C)cc(N(C)S(C)(=O)=O)c1)c1ccc(F)cc1
> 50 µM

---

biological target: Beta-secretase 1 (Homo sapiens)
Sequence (P56817 whole entry): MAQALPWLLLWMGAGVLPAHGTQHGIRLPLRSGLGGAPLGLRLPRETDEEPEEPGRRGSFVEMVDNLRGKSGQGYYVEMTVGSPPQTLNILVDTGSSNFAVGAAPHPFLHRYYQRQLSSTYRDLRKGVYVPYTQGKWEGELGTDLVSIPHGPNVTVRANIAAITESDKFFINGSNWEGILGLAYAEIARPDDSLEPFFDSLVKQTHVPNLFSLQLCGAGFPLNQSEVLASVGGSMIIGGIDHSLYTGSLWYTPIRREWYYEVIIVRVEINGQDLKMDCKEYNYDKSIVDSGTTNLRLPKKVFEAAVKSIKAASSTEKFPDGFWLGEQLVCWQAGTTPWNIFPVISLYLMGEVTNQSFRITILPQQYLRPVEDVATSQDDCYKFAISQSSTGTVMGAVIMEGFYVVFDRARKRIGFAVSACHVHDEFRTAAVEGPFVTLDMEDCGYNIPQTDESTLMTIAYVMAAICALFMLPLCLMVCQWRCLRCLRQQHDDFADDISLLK
pIC50: −log10 of the molar value.
Label Satisfied for high-side pIC50 (at or above 6) and Not satisfied for low-side pIC50 (below it).

Entry CCNC[C@@H](O)[C@H](Cc1ccccc1)NC(=O)c1cc(C(=O)N[C@H](C)c2ccc(F)cc2)cc(N(C)S(C)(=O)=O)c1 : is its pIC50 no less than 6?
Satisfied

# repeat for C[C@@H](NC(=O)c1cc(C(=O)N[C@@H](Cc2ccccc2)[C@H](O)CNC2CC2)cc(N(C)S(C)(=O)=O)c1)c1ccc(F)cc1
Satisfied

# repeat for C[C@@H](NC(=O)c1cc(C(=O)N[C@@H](Cc2ccccc2)[C@H](O)CN)cc(N(C)S(C)(=O)=O)c1)c1ccc(F)cc1
Not satisfied

# repeat for C[C@@H](NC(=O)c1cc(C(=O)N[C@@H](Cc2ccccc2)[C@H](O)CNC2CC2)cc(N(C)S(=O)(=O)N(C)C)c1)c1ccccc1
Satisfied

# repeat for C[C@@H](NC(=O)c1cc(C(=O)N[C@@H](Cc2ccccc2)[C@H](O)CNC(C)(C)C)cc(N(C)S(C)(=O)=O)c1)c1ccc(F)cc1
Not satisfied

# repeat for CC(C)S(=O)(=O)N(C)c1cc(C(=O)N[C@@H](Cc2ccccc2)[C@H](O)CNC2CC2)cc(C(=O)N[C@H](C)c2ccccc2)c1
Satisfied
